- Test Summary: Pharmacokinetics assay in rats (plasma concentration by LC/MS/MS)
- Format: in vivo
- Reported Conditions: both sexes, rat, plasma, po; SD rats, 25 mg/kg, intragastric administration; read-out: Plasma Conc. Cmax
Parameter: Cmax (ng/mL)
State the answer as a number, implicitly in ng/mL.

Input: Give me measured Cmax, please, for this molecule: CC[C@@H]1C(=O)N(C)c2cnc(Nc3ccc(C(=O)N[C@H]4CC[C@H](N5CCN(CC6CC6)CC5)CC4)c4c3OCC4)nc2N1C(C)C [Example 37]
Output: 1860

---

- Test Summary: Pharmacokinetics assay in rats (plasma concentration by LC/MS/MS)
- Type: in vivo
- Reported Conditions: both sexes, rat, plasma; SD rats, 25 mg/kg, intravenous injection; read-out: Area Under Curve AUC
Parameter: AUC (ng·h/mL)
State the answer as a number, implicitly in ng·h/mL.

Input: Give me measured AUC, please, for this molecule: "CC[C@@H]1C(=O)N(C)c2cnc(Nc3ccc(C(=O)N[C@H]4CC[C@H](N5CCN(CC6CC6)CC5)CC4)c4c3OCC4)nc2N1C(C)C"
Output: 76700

---

- Test Summary: Pharmacokinetics assay in rats (plasma concentration by LC/MS/MS)
- Format: in vivo
- Reported Conditions: both sexes, rat, plasma, oral; SD rats, 25 mg/kg, intragastric vs intravenous; read-out: oral bioavailability F
Parameter: bioavailability (%)
State the answer as a number, implicitly in %.

Input: Give me measured bioavailability, please, for this compound: CC[C@@H]1C(=O)N(C)c2cnc(Nc3ccc(C(=O)N[C@H]4CC[C@H](N5CCN(CC6CC6)CC5)CC4)c4c3OCC4)nc2N1C(C)C [Example 37]
Output: 59.4

---

- Test system: human cervix cancer cells Hela
- Test Summary: Plk Cell Proliferation Inhibition Assay (CCK8, 72 hours)
- Format: cell-based
- Reported Conditions: Hela cells highly expressing Plk
- From the text: The following in vitro assay is to determine the activity of the compounds of the present invention for inhibiting the proliferation of human cervix cancer cells Hela, which has high expression of Plk. The in vitro cellular assay described here is to determine the activity of the tested compounds for inhibiting the proliferation of cancer cells, which has high expression of Plk. The activity is represented by the IC5. […]
log10 of IC50 values for the compounds below.
Please note: log10 values; quantity IC50; unit nM.

CC[C@@H]1C(=O)N(C)c2cnc(Nc3ccc(C(=O)NC[C@@H](CN4CCN(CC5CC5)CC4)OC)c4c3OCC4)nc2N1C(C)C = 0.85
CC[C@@H]1C(=O)N(C)c2cnc(Nc3ccc(C(=O)NC[C@@H](O)CN4CCN(C)CC4)c4c3OCC4)nc2N1C(C)C = 0.85
CC[C@@H]1C(=O)N(C)c2cnc(Nc3ccc(C(=O)NC4CCN(C)CC4)c4c3OCC4)nc2N1C1CCCC1 = -0.05
CC[C@@H]1C(=O)N(C)c2cnc(Nc3ccc(C(=O)NC[C@@H](CN4CCN(C)CC4)OC)c4c3OCC4)nc2N1C1CCCC1 = 0.30
CC[C@@H]1C(=O)N(C)c2cnc(Nc3ccc(C(=O)NC[C@H]4CN5CCC[C@@H]5CO4)c4c3OCC4)nc2N1C1CCCC1 = 0.00
CC[C@@H]1C(=O)N(C)c2cnc(Nc3ccc(C(=O)NC4CCN(C)CC4)c4c3OCC4)nc2N1C(C)C = 0.30

Input: Give me measured log10 of IC50, please, for this compound: "CC[C@@H]1C(=O)N(C)c2cnc(Nc3ccc(C(=O)N[C@@H]4C[C@H]5CCN(C)C[C@H]5C4)c4c3OCC4)nc2N1C1CCCC1"
Output: 0.00

Input: Give me measured log10 of IC50, please, for this compound: "CC[C@@H]1C(=O)N(C)c2cnc(Nc3ccc(C(=O)N[C@H]4C[C@@H]5CN(CC6CC6)C[C@@H]5C4)c4c3OCC4)nc2N1C1CCCC1"
Output: 0.00

Input: Give me measured log10 of IC50, please, for this compound: "CC[C@@H]1C(=O)N(C)c2cnc(Nc3ccc(C(=O)NC[C@@H](CN4CCN(C)CC4)OC)c4c3OCC4)nc2N1C(C)C"
Output: 0.78

Input: Give me measured log10 of IC50, please, for this compound: "CC[C@@H]1C(=O)N(C)c2cnc(Nc3ccc(C(=O)N[C@H]4CC[C@H](N5CCN(C)CC5)CC4)c4c3OC(C)(C)C4)nc2N1C1CCCC1"
Output: 1.00

Input: Give me measured log10 of IC50, please, for this compound: "CC[C@@H]1C(=O)N(C)c2cnc(Nc3ccc(C(=O)N[C@H]4C[C@@H]5CN(C)C[C@@H]5C4)c4c3OCC4)nc2N1C(C)C"
Output: 0.30

Input: Give me measured log10 of IC50, please, for this compound: CC[C@@H]1C(=O)N(C)c2cnc(Nc3ccc(C(=O)NC4CCN(C)CC4)c4c3OC(C)C4)nc2N1C1CCCC1 (stereo partly shown)
Output: 0.60

Input: Give me measured log10 of IC50, please, for this compound: "CC[C@@H]1C(=O)N(C)c2cnc(Nc3ccc(C(=O)NC[C@H](O)CN4CCN(C)CC4)c4c3OC(C)(C)C4)nc2N1C1CCCC1"
Output: 0.85

Input: Give me measured log10 of IC50, please, for this compound: "CC[C@@H]1C(=O)N(C)c2cnc(Nc3ccc(C(=O)N[C@@H]4C[C@@H]5CN(C)C[C@@H]5C4)c4c3OCC4)nc2N1C1CCCC1"
Output: 0.00

Input: Give me measured log10 of IC50, please, for this compound: "CC[C@@H]1C(=O)N(C)c2cnc(Nc3ccc(C(=O)NC4CCN(C)CC4)c4c3OC(C)(C)C4)nc2N1C1CCCC1"
Output: 0.30

Input: Give me measured log10 of IC50, please, for this compound: "CC[C@@H]1C(=O)N(C)c2cnc(Nc3ccc(C(=O)N[C@H]4CC[C@H](N5CCN(CC6CC6)CC5)CC4)c4c3OCC4)nc2N1C(C)C"
Output: -0.15

Data provenance is patent US8691822B2.
